# assayName: Pharmacokinetic test in mice
# Assay type: in vivo
# experimentalContext: mouse; male ICR mice, intravenous administration (2.5 mg/kg), plasma
# Source text: 4.1. Experimental animals: Male ICR mice, 20-25 g, 6 mice/compound, purchased from Chengdu Dossy Experimental Animals Co., Ltd. 4.2 Experimental design: on the day of the experiment, the ICR mice were randomly grouped according to their body weights. […] Table 5. Administration information vehicle for intravenous administration: 5% DMA+5% HS-15+90% NS; vehicle for intragastric administration: 0.5% MC […]
Reported values of AUC(0-t) for individual entries
Write the value in ng·h/mL as a bare number.

> print(dat)
                          structurenotation  numericvalue
1  [2H]C([2H])([2H])n1cc(C(=O)N[C@H]2CC[C@H](CCOc3cc(CN4Cc5ccc(C(F)(F)F)cc5C4)ccn3)CC2)cn1          5530
2  [2H]C([2H])([2H])C(=O)N[C@H]1CC[C@H](c2cc3oc(CN4Cc5ccc(C(F)(F)F)cc5C4)cc(=O)c3o2)CC1          2960
3  CS(=O)(=O)N1CCC(CCOc2cc(CN3Cc4ccc(C5CC5)cc4C3)ccn2)CC1          2360

Per the records, this compound ( CS(=O)(=O)N1CC(OC(=O)N2CCC3(CC2)CC(Oc2cc(CN4Cc5ccc(C(F)(F)F)cc5C4)ccn2)C3)C1 ) has AUC(0-t) equal to 4360

###

# assayName: Pharmacokinetic test in rats
# Type: in vivo
# experimentalContext: rat; male SD rats, intravenous administration (2.5 mg/kg), plasma; read-out: Vdss
readoutLabel: Vd (L/kg)
The reply should be a number in L/kg, with the unit left off.

Example entries begin here.
> print(dat)
                          structurenotation  numericvalue
1  O=C(N[C@H]1CC[C@H](CCOc2cc(CN3Cc4ccc(C(F)(F)F)cc4C3)ccn2)CC1)OC1CC1          4.58
2  COc1cc(CN2Cc3ccc(C(F)(F)F)cc3C2)cc2cc(C3CCN(C(=O)OC4CC4)CC3)oc12          6.41

For [2H]C([2H])([2H])C(=O)N[C@H]1CC[C@H](CCOc2cc(CN3Cc4ccc(C(F)(F)F)cc4C3)ccn2)CC1 the molecule record lists Vd as 1.11

###

# assayName: Pharmacokinetic test in beagle dogs
# Type: in vivo
# experimentalContext: dog, po; male beagle dogs, intragastric administration (3 mg/kg), plasma
# Experimental: Experimental animals: male beagle dogs, about 8-11 kg, 6 beagle dogs/compound, purchased from Beijing Marshall Biotechnology Co., Ltd. Experimental method: on the day of the experiment, the beagle dogs were randomly grouped according to their body weights. […] Before and after the administration, 1 ml of blood was taken from the jugular veins or limb veins, and placed in an EDTAK2 centrifuge tube. […] The samples were analyzed quantitatively by LC-MS/MS. […]
readoutLabel: half-life (h)
Numeric only. Scale: h

Record [2H]C([2H])([2H])C(=O)N[C@H]1CC[C@H](c2cc3oc(CN4Cc5ccc(C(F)(F)F)cc5C4)cc(=O)c3o2)CC1 . Reported half-life: 6.79

###

# assayName: Pharmacokinetic test in beagle dogs
# Type: in vivo
# experimentalContext: dog; male beagle dogs, intravenous administration (1 mg/kg), plasma; read-out: Vdss
readoutLabel: Vd (L/kg)
Field: numeric (L/kg). Do not append units.

Item: [2H]C([2H])([2H])C(=O)N[C@H]1CC[C@H](c2cc3oc(CN4Cc5ccc(C(F)(F)F)cc5C4)cc(=O)c3o2)CC1 | Vd: 0.87

###

# assayName: Pharmacokinetic test in mice
# Type: in vivo
# experimentalContext: mouse; male ICR mice, intravenous administration (2.5 mg/kg), plasma; read-out: Vdss
readoutLabel: Vd (L/kg)
# value in L/kg; strip the unit string

Some solved cases for reference:
> print(dat)
                                   compound  endpointunit  numericvalue
1  [2H]C([2H])([2H])n1cc(C(=O)N[C@H]2CC[C@H](CCOc3cc(CN4Cc5ccc(C(F)(F)F)cc5C4)ccn3)CC2)cn1 [Compound 63]          L/kg          2.36
2  CS(=O)(=O)N1CC(OC(=O)N2CCC3(CC2)CC(Oc2cc(CN4Cc5ccc(C(F)(F)F)cc5C4)ccn2)C3)C1 [Compound 38]          L/kg          2.78
3  [2H]C([2H])([2H])C(=O)N[C@H]1CC[C@H](c2cc3oc(CN4Cc5ccc(C(F)(F)F)cc5C4)cc(=O)c3o2)CC1 [Compound 58]          L/kg          1.34

According to the records, this compound CS(=O)(=O)N1CCC(CCOc2cc(CN3Cc4ccc(C5CC5)cc4C3)ccn2)CC1 [Compound 50] displays Vd of 3.37

###

# assayName: Pharmacokinetic test in rats
# Format: in vivo
# experimentalContext: rat; male SD rats, intravenous administration (2.5 mg/kg), plasma
Reported values of AUC(0-t) for individual entries
Numbers only here, please. The scale is ng·h/mL.

Record excerpt, results attached:
> print(dat)
                                   molecule  numericvalue
1  [2H]C([2H])([2H])C(=O)N[C@H]1CC[C@H](CCOc2cc(CN3Cc4ccc(C(F)(F)F)cc4C3)ccn2)CC1 [Compound 62]         10800
2  O=C(N[C@H]1CC[C@H](CCOc2cc(CN3Cc4ccc(C(F)(F)F)cc4C3)ccn2)CC1)OC1CC1 [Compound 51]          4000

Kindly consider the entry below.
Measured AUC(0-t), O=C(N[C@H]1CC[C@H](CCOc2cc(CN3Cc4ccc(C5CC5)cc4C3)ccn2)CC1)C1CC1 [Compound 60] : 6080

###

# assayName: Pharmacokinetic test in beagle dogs
# Assay type: in vivo
# experimentalContext: dog; male beagle dogs, intravenous administration (1 mg/kg), plasma
readoutLabel: clearance

// sample [2H]C([2H])([2H])C(=O)N[C@H]1CC[C@H](c2cc3oc(CN4Cc5ccc(C(F)(F)F)cc5C4)cc(=O)c3o2)CC1 , its clearance was 1.24 mL/min/kg

###

# assayName: Pharmacokinetic test in rats
# Type: in vivo
# experimentalContext: rat; male SD rats, intravenous administration (2.5 mg/kg), plasma
readoutLabel: AUC(0-t) (ng·h/mL)
Answer with a number only, understood to be in ng·h/mL.

> print(dat)
                          structurenotation  numericvalue
1  COc1cc(CN2Cc3ccc(C(F)(F)F)cc3C2)cc2cc(C3CCN(C(=O)OC4CC4)CC3)oc12          3560
2  O=C(N[C@H]1CC[C@H](CCOc2cc(CN3Cc4ccc(C(F)(F)F)cc4C3)ccn2)CC1)C1CC1          2150
3  N#Cc1cc(CN2Cc3ccc(C(F)(F)F)cc3C2)cc2cc(C3CCN(C(=O)OC4CC4)CC3)oc12          3110

AUC(0-t) reading for O=C(OC1CC1)N1CCC(CCOc2cc(CN3Cc4ccc(C(F)(F)F)cc4C3)ccn2)CC1 : 1950

###

Measured half-life, listed per entry.
# assayName: Pharmacokinetic test in mice
# Format: in vivo
# experimentalContext: mouse; male ICR mice, intravenous administration (2.5 mg/kg), plasma
Your answer should be a plain number; it is taken to be in h.

> print(dat)
                          structurenotation  readoutlabel  numericvalue
1  [2H]C([2H])([2H])n1cc(C(=O)N[C@H]2CC[C@H](CCOc3cc(CN4Cc5ccc(C(F)(F)F)cc5C4)ccn3)CC2)cn1     half-life           4.7
2  CS(=O)(=O)N1CCC(CCOc2cc(CN3Cc4ccc(C5CC5)cc4C3)ccn2)CC1     half-life             3

The reported half-life of the compound [2H]C([2H])([2H])C(=O)N[C@H]1CC[C@H](c2cc3oc(CN4Cc5ccc(C(F)(F)F)cc5C4)cc(=O)c3o2)CC1 was 2.77

Noted for CS(=O)(=O)N1CC(OC(=O)N2CCC3(CC2)CC(Oc2cc(CN4Cc5ccc(C(F)(F)F)cc5C4)ccn2)C3)C1 : its half-life reads 4.11

###

# assayName: Pharmacokinetic test in rats
# Format: in vivo
# experimentalContext: rat, po; male SD rats, intragastric administration (10 mg/kg), plasma
Each item that follows carries a reported half-life.
Reply with just the number (in h).

See these solved cases before continuing.
> print(dat)
                          structurenotation  readoutlabel  endpointunit  numericvalue
1  O=C(N[C@H]1CC[C@H](CCOc2cc(CN3Cc4ccc(C(F)(F)F)cc4C3)ccn2)CC1)C1CC1     half-life             h          6.58
2  [2H]C([2H])([2H])C(=O)N[C@H]1CC[C@H](CCOc2cc(CN3Cc4ccc(C(F)(F)F)cc4C3)ccn2)CC1     half-life             h          4.13
3  O=C(N[C@H]1CC[C@H](CCOc2cc(CN3Cc4ccc(C5CC5)cc4C3)ccn2)CC1)C1CC1     half-life             h          2.36
4  O=C(N[C@H]1CC[C@H](CCOc2cc(CN3Cc4ccc(C(F)(F)F)cc4C3)ccn2)CC1)OC1CC1     half-life             h          9.63
5  COc1cc(CN2Cc3ccc(C(F)(F)F)cc3C2)cc2cc(C3CCN(C(=O)OC4CC4)CC3)oc12     half-life             h          7.74
6  N#Cc1cc(CN2Cc3ccc(C(F)(F)F)cc3C2)cc2cc(C3CCN(C(=O)OC4CC4)CC3)oc12     half-life             h          8.13

Next compound, please.
half-life recorded for this compound, O=C(OC1CC1)N1CCC(CCOc2cc(CN3Cc4ccc(C(F)(F)F)cc4C3)ccn2)CC1 , is 11.1
